- Tested on: SN12C
- Experiment Summary: NCI tumour cell line growth inhibition, 48 h
The source made the active and inactive calls. No stated cut-off is given here; in the data, active = GI50 up to about 1.1 µM and inactive = higher.
Can you answer with just one of these options? active, inactive

Record excerpt, results attached:
COc1ccc(Cc2cc(Cc3ccc(OC)cc3)cc(Cc3ccc(OC)cc3)c2)cc1; inactive
CCOC1Oc2ccccc2-c2nc(SC)ncc21 (centres undefined); inactive
O=C(CCC(=O)Nc1ccc(Cl)c(Cl)c1)CC(=O)c1ccc2ccccc2c1; inactive
CCCCCCCCCc1cc(O)c(O)cc1CCCCCCCCC; inactive
COc1cc(C(O)C(=O)c2nc3ccc([N+](=O)[O-])cc3nc2O)ccc1O (centres undefined); inactive

Please find the next compound below.
## Input Call for entry `Cn1c2ccccc2c2cc(-c3ccccc3)c3c(c21)C(=O)c1ccccc1C3=O` :
## Output inactive

###

- System: HT-29
- Experiment Summary: NCI tumour cell line growth inhibition, 48 h
Activity calls are given as the source filed them. No stated cut-off is given here; in the data, active = GI50 up to about 1.1 µM and inactive = higher.
Can you answer with just one of these options? 1.0 (active), 0.0 (inactive)

Record excerpt, results attached:
O=C1CC(c2ccccc2Cl)C2(C(=O)NC(=S)NC2=O)C(c2ccccc2Cl)C1 (centres undefined); 0.0
COc1cc(C(c2cc(OC)c(OC)c(OC)c2)N2C(=O)CCC2C(=O)O)cc(OC)c1OC (centres undefined); 0.0
Cc1cccc(Nc2nc3ccccc3nc2NS(=O)(=O)c2ccc(N)cc2)c1; 0.0
CCOC(=O)/C=C/CCO[Si](C)(C)C(C)(C)C; 0.0
CC1OC(OC2C[C@](O)(C(=O)CF)Cc3c(O)c4c(c(O)c32)C(=O)c2ccccc2C4=O)CC(N)C1O (some centres undefined); 1.0

## Input Call for entry C/N=C1\OC2=C3C(c4ccccc4)(O/C(=N/C)N(C)C3(c3ccccc3)OC2=O)N1C (centres undefined) :
## Output 0.0

## Input Call for entry FC(F)(F)c1ccc2c(c1)nc(Cc1ccc(Cl)cc1)n2CC1CCCN2CCCCC12 (centres undefined) :
## Output 0.0

## Input Call for entry [N-]=[N+]=Nc1ccc2c(c1)Sc1ccccc1N2CCCCN1CCN(Cc2ccc(C(=O)c3ccc(CSCC(N)C(=O)O)cc3)cc2)CC1 (centres undefined) :
## Output 0.0

## Input Call for entry C[C@]12CCc3nonc3C1CC[C@@H]1C2CC[C@]2(C)C(=O)CCC12 (some centres undefined) :
## Output 0.0

## Input Call for entry COC1O[C@H]2[C@H]3[C@@H]1[C@@H](OS(=O)(=O)c1ccc(C)cc1)C(=O)N3C[C@H]2O (some centres undefined) :
## Output 0.0

## Input Call for entry COC(=O)c1ccc2c(c1)CC1(C2)Cc2ccccc2C1=O (centres undefined) :
## Output 0.0

## Input Call for entry `O=[N+]([O-])c1ccc2c(c1)/C(=N/N=C1c3ccccc3Cc3ccccc31)c1cc([N+](=O)[O-])cc([N+](=O)[O-])c1-2` :
## Output 0.0

## Input Call for entry `O=c1c2cn[nH]c2nc2scc(-c3ccc(Cl)cc3)n12` :
## Output 0.0

## Input Call for entry `COc1cccc(/C(C=O)=C(\Cl)c2ccc(OC)c(OC)c2)c1` :
## Output 0.0

## Input Call for entry c1ccc(C(=NCCC2CNc3ccccc32)c2ccccc2)cc1 (centres undefined) :
## Output 0.0

###

Reported GI50 is given for each of the following compounds.
- Test system: U-251
- Experiment Summary: NCI tumour cell line growth inhibition, 48 h
Calls of active or inactive are those of the source. No stated cut-off is given here; in the data, active = GI50 up to about 1.1 µM and inactive = higher.

Cc1ccc(/C=C/C(=O)c2sc(C(N)=S)nc2C)cc1; > 100 µM (inactive)
CN1CCN(C(=S)N(C(=O)c2ccco2)C2CCCCC2)CC1; > 100 µM (inactive)

Below: the item to evaluate.
## Input Which GI50 is listed for CCOC1c2cc(OC)c(OC)cc2-c2ccc3ccccc3c2N1C (stereo unspecified) ?
## Output 6.41 µM (inactive)

###

- Test system: MDA-MB-231
- Experiment Summary: NCI tumour cell line growth inhibition, 48 h
Active and inactive are the calls of the source. No stated cut-off is given here; in the data, active = GI50 up to about 1.1 µM and inactive = higher.
Can you answer with just one of these options? active, inactive

## Input Call for entry `c1ccc(-c2cc(-c3cc(-c4ccccn4)[nH]n3)n[nH]2)nc1` :
## Output inactive

## Input Call for entry `COC(=O)/C(=C(\C)NC(C)=O)c1c(C(=O)OC)[nH]c2ccccc12` :
## Output inactive

## Input Call for entry COc1cc(C2c3cc4c(cc3OC(C)(O)C2C)OCO4)cc(OC)c1OC (stereo unspecified) :
## Output active

###

- Tested on: HT-29
- Experiment Summary: NCI tumour cell line growth inhibition, 48 h
Calls of active or inactive are those of the source. No stated cut-off is given here; in the data, active = GI50 up to about 1.1 µM and inactive = higher.
Reported Metric: GI50

Some solved entries appear below for comparison.
COc1cc(OC)c2c(O)cc(CC(C)O)cc2c1 (stereo not given); 92.5 µM (inactive)
COC(OC)C(C)CC(=O)N(C)C (stereo not given); > 100 µM (inactive)
CCCCc1ccc(Nc2nc(S)c3ncn(COCCO)c3n2)cc1; 50.5 µM (inactive)
Clc1c2ncccc2cc2nn[nH]c12; > 100 µM (inactive)
COc1cc(/C=C/C(=O)OCC23CC[C@@]4(C(=O)O)CCC(C)[C@H](C)C4C2=CCC2[C@@]4(C)CC[C@H](O)C(C)(C)C4CC[C@]23C)ccc1O (stereo not given in full); 20.4 µM (inactive)
C[C@]12CC[C@H]3[C@@H](CCC4=C/C(=N/OCCN5CCCCC5)CC[C@@]43C)[C@@H]1CC[C@@H]2O; 1.37 µM (inactive)

## Input Which GI50 is listed for `CCOC(=O)c1nc2ccccc2nc1Nc1ccc(F)cc1` ?
## Output > 100 µM (inactive)

## Input Which GI50 is listed for COc1ccc(C2SCC(=O)N2c2ccc(-n3c(-c4ccccc4)nc4ccccc4c3=O)cc2)cc1OC (stereo not given) ?
## Output > 100 µM (inactive)

## Input Which GI50 is listed for `CN1CCCS/C1=C1/SC(=S)N(c2ccccc2)C1=O` ?
## Output > 100 µM (inactive)

## Input Which GI50 is listed for `COc1cc2c(c(OC)c1OC)-c1ccc(SC)c(=O)cc1[C@@H](NCc1ccccc1[N+](=O)[O-])CC2` ?
## Output 0.00391 µM (active)

## Input Which GI50 is listed for Cc1cc(Br)cc(C)c1NC(=O)C(=O)C1C(=O)C(CC2C(=O)c3ccccc3C2=O)C(=O)CC1(C)C (stereo not given) ?
## Output > 100 µM (inactive)

## Input Which GI50 is listed for `c1ccc(-c2c3c(nc4c2CC[C@H]4NC2=NCCN2)[C@@H](NC2=NCCN2)CC3)cc1` ?
## Output > 100 µM (inactive)

## Input Which GI50 is listed for `Cn1c(=O)c2/c(n(C)c1=O)=N\C=c1\c(=O)n(C)c(=O)n(C)\c1=N\C=2` ?
## Output > 100 µM (inactive)

## Input Which GI50 is listed for `CN(C(=O)c1ccc(Cl)cc1)C(=S)N1CCN(c2ccccn2)CC1` ?
## Output > 100 µM (inactive)

## Input Which GI50 is listed for `CC(=O)Oc1c(C)c2c(c3ccccc13)OC(C)(C)C2` ?
## Output 18.1 µM (inactive)

## Input Which GI50 is listed for COC(=O)C(=O)C(C(=O)C(=O)Nc1ccc([N+](=O)[O-])cc1[N+](=O)[O-])c1nc2ccc([N+](=O)[O-])cc2nc1O (stereo not given) ?
## Output > 100 µM (inactive)

###

- Test system: MDA-MB-435
- Experiment Summary: NCI tumour cell line growth inhibition, 48 h
Activity calls are given as the source filed them. Rule as the data show it: active = GI50 up to about 1.1 µM and inactive = higher.
Can you answer with just one of these options? active, inactive

Record excerpt, results attached:
COc1cc(C2c3cc4c(cc3OC(C)(O)C2C)OCO4)cc(OC)c1OC (stereo not given); active
N=C(N)N/N=C/c1c(-c2ccc(Cl)cc2)nc2n1CCS2; inactive
C/C(=N/NC(=S)Nc1ccccc1C)c1ccccn1; active
C[C@H](CCC(=O)O)[C@H]1CC[C@H]2[C@@H]3[C@@H](O)C[C@@H]4C[C@H](O)CC[C@]4(C)[C@H]3C[C@H](O)[C@]12C; inactive

Please find the next molecule below.
## Input Call for entry `COc1ccc2c(c1)/C(=C\c1c(Cl)nc3n1CCS3)C(=O)N2` :
## Output inactive

###

- Tested on: SF-539
- Experiment Summary: NCI tumour cell line growth inhibition, 48 h
Activity calls are given as the source filed them. No stated cut-off is given here; in the data, active = GI50 up to about 1.1 µM and inactive = higher.
Reported Metric: GI50

CCOP(=O)(OCC)C(c1ccc(F)cc1)N(C(=O)NC(F)(F)F)c1ccc(F)cc1 (stereo not given); > 100 µM (inactive)

## Input Which GI50 is listed for Cc1ccc(C)c(NC(=O)/C(=N\NC(N)=S)C(C#N)c2ccccc2)c1 (stereo not given) ?
## Output > 100 µM (inactive)

## Input Which GI50 is listed for CCCCN(CCCC)CC(C(=O)Nc1ccc([N+](=O)[O-])cc1[N+](=O)[O-])/C(C)=N\NC(=O)c1ccncc1 (stereo not given) ?
## Output > 100 µM (inactive)

## Input Which GI50 is listed for `CN1c2ccccc2S(=O)(=O)n2c(COc3ccccc3)nnc21` ?
## Output 62.8 µM (inactive)

## Input Which GI50 is listed for CCOP(C)(=O)C(Nc1ccc(F)cc1)c1ccc(F)cc1 (stereo not given) ?
## Output > 100 µM (inactive)
